Tested on: HIV-1 (LAI)
PROTOCOL DETAILS: Plaque assay, HeLa-CD4 cells infected with HIV-1 (LAI)
Assay type: cell-based, HIV-1; HeLa-CD4 cells
PARTICULARS: HeLa-CD4, HIV-1 (LAI), plaques formed
QUANTITY MEASURED: IC50

// sample CTTCGGGCCTGTCGGGTCCCCTCGGG (CTTCGGGCCTGTCGGGTCCCCTCGGG; chemistry not given here) [SEQ. ID. NO. 18] , its IC50 was 200 nM

----------
Test system: human bone marrow cells
PROTOCOL DETAILS: Cytotoxicity: colony formation of human bone marrow cells
Type: cell-based
PARTICULARS: agar medium with G-CSF, eight days in culture
Listed below: IC50 values for each entry.

// sample GCCTGTCGGG TCCC (GCCTGTCGGGTCCC; chemistry not given here) [SEQ. ID. NO. 22] , its IC50 was 20 to 30 µM

Could you now consider this next sequence?
// sample CTTCGGGCCTGTCGGGTCCCCTCGGG (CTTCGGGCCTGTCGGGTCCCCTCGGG; chemistry not given here) [SEQ. ID. NO. 18] , its IC50 was 2 to 3 µM
